These measurements were taken from patent US11702404B2.

test: Microsomal stability, human liver microsomes (predicted hepatic clearance); conditions: predicted from in vitro microsomal stability data
We'd kindly ask you to apply these Predicted Hepatic Clearance (Pred. Cl.) classes: low interval: < 6 mL/min/kg; middle interval: ≥ 6 mL/min/kg and < 9 mL/min/kg; high interval: ≥ 9 mL/min/kg

Use these answered entries as a reference point.
COCCn1c(Cc2c(F)cc(-c3cccnc3OCc3ccc(Cl)cc3F)cc2F)nc2ccc(C(=O)O)cc21    low interval
N#Cc1ccc(COc2cccc(-c3cc(F)c(Cc4nc5ccc(C(=O)O)cc5n4Cc4cnns4)cc3F)n2)c(F)c1    high interval
O=C(O)c1ccc2nc(Cc3ccc(-c4cccc(OCc5ccc(Cl)cc5F)n4)c(F)c3)n(CC3(CF)CC3)c2n1    middle interval
COCCn1c(Cc2c(F)cc(-c3cccnc3OCc3ccc(C#N)cc3OC)cc2F)nc2ccc(C(=O)O)cc21    high interval
CO[C@@H]1CCC[C@@H]1n1c(Cc2cc(F)c(-c3cccc(OCc4ccc(C#N)cc4F)n3)cc2F)nc2ccc(C(=O)O)cc21    middle interval

Class (by measured Predicted Hepatic Clearance (Pred. Cl.)) for N#Cc1ccc(COc2cccc(-c3ccc(Cc4nc5ccc(C(=O)O)cc5n4CC4(n5cncn5)CC4)c(F)c3)n2)c(F)c1
middle interval

Class (by measured Predicted Hepatic Clearance (Pred. Cl.)) for COCCn1c(Cc2ccc(-c3cccc(OCc4ccc(C#N)nc4)n3)cc2F)nc2ccc(C(=O)O)cc21
low interval

Class (by measured Predicted Hepatic Clearance (Pred. Cl.)) for N#Cc1cc(F)c(COc2cccc(-c3ccc(Cc4nc5ccc(C(=O)O)cc5n4C[C@@H]4CCO4)c(F)c3)n2)cc1F
low interval
